system: SJSA-1; assay: Protocol B: SJSA-1 CellTiter-Glo Luminescent Cell Viability Assay; conditions: Homo sapiens, SJSA-1, read-out: SJSA1 IC50 (μM) (Protocol B)
measuredParameter: IC50 (µM)
Answers are plain numbers, in µM.

Record [2H]C([2H])(O)C1(C([2H])([2H])O[C@]2(c3ccc(Cl)cc3)c3c(F)cc(C(O)(CC)c4cn(C)cn4)cc3C(=O)N2Cc2ccc(C#N)cn2)CC1 (stereo partly shown) / SJSA-1, IC50 recorded as 1.9
